Hey, just so you know, these numbers are from PubChem BioAssay (NCATS).

Tested on: 7G8
Experiment: qHTS profiling for inhibitors of Plasmodium falciparum proliferation (AID 504749); further: nearly all actives have a fitted effect of over 60% in size
Details: P. falciparum in erythrocytes, SYBR Green DNA, 72 h; series mostly up to 12.8 µM
Results filed as inconclusive are left out. The source made the active and inactive calls. The call rests on the fitted dose curve; in most records, active means well fitted inhibition curve with a large enough effect; inconclusive means small, poorly fitted or top-dose-only effect; inactive means flat fitted curve, though single readings scatter.
# output must be one of active, inactive

Example entries begin here.
Cc1cc(/C=C\c2ccc3cc(N(C)C)ccc3[n+]2C)c(C)n1-c1ccccc1: active
NS(=O)(=O)c1cc([C@@]2(O)NC(=O)c3ccccc32)ccc1Cl: inactive
CC(=O)Nc1c(I)c(C(=O)N[C@H]2[C@@H](O)[C@H](O)[C@H](CO)O[C@@H]2O)c(I)c(N(C)C(C)=O)c1I: inactive
CC(=O)O[C@@H](C)C[N+](C)(C)C: inactive
NC(=O)c1cc[n+](CC2=C(C(=O)O)N3C(=O)[C@@H](NC(=O)[C@H](c4ccccc4)S(=O)(=O)[O-])[C@@H]3SC2)cc1: active

-- ask Write down the call the test reported for this compound. Item: C[C@@H]1COc2c(N3CCN(C)CC3)c(F)cc3c(=O)c(C(=O)O)cn1c23
-- reply inactive

====

Test: qHTS Assay for Lipid Storage Modulators (AID 1519); further: on the % scale 0 is the no-effect control and ±100 the full control effect
Conditions: Drosophila S3 cells, BODIPY lipid droplet/cell ratio, laser cytometry; at 57.5 µM (top of the series); cells loaded with oleic acid
Records with an inconclusive call do not appear.
Measurement label: activity change, negative = inhibition (%)
Numbers only; they are read as %.

Example results:
COc1ncc2nc(-c3cn(C)c4ccccc34)c(=O)n(Cc3ccc(F)cc3)c2n1: 3.02
c1ccc2c(Nc3ccncc3)nc(-c3ccc4c(c3)OCO4)nc2c1: -19.5
CN1CCN(c2ncc3ncc(=O)n(Cc4ccc(F)cc4)c3n2)CC1: 2.71

GET /value?item= CN1CCN(c2ncnc3ccc(-c4ccoc4)cc23)CC1 &field=activity change, negative = inhibition returns 2.55

GET /value?item= O=C(c1csnn1)N1CCC2(CC1)CCN(c1ccncc1)CC2 &field=activity change, negative = inhibition returns 1.35

GET /value?item= c1ccc(-c2ccc(N3CC[C@@]4(CCCNC4)C3)cc2)cc1 &field=activity change, negative = inhibition returns 4.33

GET /value?item= CS(=O)(=O)Nc1cccc(-c2nc(NC3CC3)c3ccccc3n2)c1 &field=activity change, negative = inhibition returns 3.51

GET /value?item= N#Cc1ccccc1-c1cncnc1NCc1cccnc1 &field=activity change, negative = inhibition returns 4.31

GET /value?item= COC(=O)N1CCC[C@@]2(CCN(Cc3cc(C(F)(F)F)cc(C(F)(F)F)c3)C2)C1 &field=activity change, negative = inhibition returns -1.37

GET /value?item= FC(F)(F)c1ccccc1-c1nccc(NCc2ccccc2)n1 &field=activity change, negative = inhibition returns 6.15

GET /value?item= COC(=O)CC1C2(C)CC34OC5(C)O[C@@]6(C7/C(=C(/OC)C(C)C)C(=O)OC(c8ccoc8)[C@@]7(C)C(OC(=O)C(C)C)C(OC)[C@]6(O5)[C@@]13C)C(OC)[C@]4(OC)C2OC(C)=O (some centres undefined) &field=activity change, negative = inhibition returns -17.5

GET /value?item= O=S(=O)(c1ccccc1)N1CCC2(CCN(c3ccncc3)CC2)CC1 &field=activity change, negative = inhibition returns 3.52

GET /value?item= N#Cc1cccc(NC(=O)N2CC3(CCN(C(=O)c4ccco4)CC3)C2)c1 &field=activity change, negative = inhibition returns 4.67

GET /value?item= CS(=O)(=O)N1CCC2(CC1)CN(c1ccccn1)C2 &field=activity change, negative = inhibition returns 2.99

GET /value?item= COc1ccc2c(c1)[C@@]1(C)CCC[C@](C)(CO)C1CC2 (some centres undefined) &field=activity change, negative = inhibition returns 8.34

GET /value?item= CN(C)Cc1ccccc1-c1nccc(NCc2cccs2)n1 &field=activity change, negative = inhibition returns 10.9

GET /value?item= Cc1cnc(CNc2ncncc2-c2ccccc2CN(C)C)cn1 &field=activity change, negative = inhibition returns -8.48

GET /value?item= FC(F)(F)c1cc(CN2CCC3(CCNCC3)CC2)cc(C(F)(F)F)c1 &field=activity change, negative = inhibition returns -1.92

====

Assay: Primary qHTS for small molecule stabilizers of the endoplasmic reticulum resident proteome: Secreted ER Calcium Modulated Protein (SERCaMP) assay (AID 1508630); further: on the % scale 0 is the no-effect control and ±100 the full control effect
Settings: SH-SY5Y GLuc-SERCaMP secretion, thapsigargin, luminescence; series mostly up to 38.4 µM
Records with an inconclusive call do not appear. Active and inactive are the calls of the source. The call rests on the fitted dose curve; in most records, active means well fitted inhibition curve with a large enough effect; inconclusive means small, poorly fitted or top-dose-only effect; inactive means no such curve, though single readings can be large or run the other way.
Measurement label: outcome

Example results:
Cc1cccc(CNc2ccnc(-c3cccc(C#N)c3)n2)c1: inactive
CCNc1ncc2nc(CCc3ccccc3)c(=O)n(Cc3ccc(F)cc3)c2n1: inactive
Cc1noc(C)c1-c1ccc2ncnc(NCc3cccs3)c2c1: inactive
CCNc1ncc2nc(-c3ccc(F)cc3)c(=O)n(-c3ccccc3)c2n1: inactive
CC(C)NC(=O)N1CC[C@@]2(CCCN(C(=O)c3ccncc3)C2)C1: inactive

// switching to the query compound
GET /value?item= Cc1nc2cncnc2n(Cc2ccc(F)cc2)c1=O &field=outcome returns inactive

====

Experiment: Primary qHTS for small molecule stabilizers of the endoplasmic reticulum resident proteome: Secreted ER Calcium Modulated Protein (SERCaMP) assay (AID 1508630); further: on the % scale 0 is the no-effect control and ±100 the full control effect
Settings: SH-SY5Y GLuc-SERCaMP (Gaussia luciferase released on ER calcium loss) secretion, thapsigargin, luminescence; series mostly up to 38.4 µM
Inconclusive results are not listed. Active and inactive are the calls of the source. The call rests on the fitted dose curve; in most records, active means well fitted inhibition curve with a large enough effect; inconclusive means small, poorly fitted or top-dose-only effect; inactive means no such curve, though single readings can be large or run the other way.
Measurement label: outcome

Example results:
CN(C)c1ccc(-c2nc(N(C)C)c3ccccc3n2)cc1: inactive
COc1ccccc1CNc1ncncc1-c1ccccc1C: inactive
CS(=O)(=O)Nc1cccc(-c2nccc(NCc3cccs3)n2)c1: inactive
COc1ccc(-n2c(=O)c(-c3cccc(F)c3)nc3cncnc32)cc1: inactive
COC(=O)N1CCC[C@@]2(CCN(Cc3nccs3)C2)C1: inactive
CN(C)C(=O)c1ccc(-c2cncnc2Nc2ccccc2)cc1: inactive
CCNc1ncc2nc(-c3ccc(OC)cc3)c(=O)n(-c3ccc(OC)cc3)c2n1: inactive
COc1ccc(-n2c(=O)c(C)nc3cncnc32)cc1: inactive
O=S(=O)(c1ccccc1)N1CCC2(CC1)CN(c1ccncc1)C2: inactive
c1ccc(CNc2ncnc3ccc(-c4ccc5c(c4)OCO5)cc23)cc1: inactive

GET /value?item= Cc1cccc(CNc2ccnc(-c3ccccc3Cl)n2)c1 &field=outcome returns inactive

GET /value?item= COc1ccc(CNc2ncnc3ccc(-c4c(C)noc4C)cc23)c(OC)c1 &field=outcome returns inactive

====

Target: Rap guanine nucleotide exchange factor 4 (Homo sapiens) (UniProt Q8WZA2)
Sequence (Q8WZA2 whole entry, looked up): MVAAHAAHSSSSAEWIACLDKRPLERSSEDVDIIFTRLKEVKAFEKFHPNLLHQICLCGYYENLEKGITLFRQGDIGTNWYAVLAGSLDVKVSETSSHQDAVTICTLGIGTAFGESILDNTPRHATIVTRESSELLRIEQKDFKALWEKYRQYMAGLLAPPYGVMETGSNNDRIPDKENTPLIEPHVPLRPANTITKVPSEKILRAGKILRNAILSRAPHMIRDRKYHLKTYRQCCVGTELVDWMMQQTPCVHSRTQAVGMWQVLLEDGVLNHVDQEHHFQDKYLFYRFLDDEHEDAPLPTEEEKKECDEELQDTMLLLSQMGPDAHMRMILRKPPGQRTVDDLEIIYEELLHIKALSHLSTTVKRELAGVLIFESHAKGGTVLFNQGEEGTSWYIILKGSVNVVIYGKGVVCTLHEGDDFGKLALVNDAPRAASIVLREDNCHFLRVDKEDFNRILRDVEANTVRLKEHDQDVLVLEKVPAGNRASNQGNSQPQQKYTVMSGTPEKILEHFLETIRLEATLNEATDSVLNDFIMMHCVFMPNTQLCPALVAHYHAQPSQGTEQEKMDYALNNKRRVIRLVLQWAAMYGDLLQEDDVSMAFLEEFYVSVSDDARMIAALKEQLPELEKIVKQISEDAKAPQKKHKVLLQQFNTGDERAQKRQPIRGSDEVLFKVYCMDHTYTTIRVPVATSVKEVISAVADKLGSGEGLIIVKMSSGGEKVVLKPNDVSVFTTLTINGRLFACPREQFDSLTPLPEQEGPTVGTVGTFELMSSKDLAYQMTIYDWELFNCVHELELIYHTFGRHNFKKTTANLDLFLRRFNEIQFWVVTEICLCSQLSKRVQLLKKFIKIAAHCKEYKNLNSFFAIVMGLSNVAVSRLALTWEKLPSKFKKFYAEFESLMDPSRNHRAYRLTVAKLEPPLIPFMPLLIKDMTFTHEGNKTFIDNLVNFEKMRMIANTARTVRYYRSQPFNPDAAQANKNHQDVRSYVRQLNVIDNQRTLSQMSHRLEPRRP
Assay: Confirmatory qHTS for antagonist of cAMP-regulated guanine nucleotide exchange factor 4 (EPAC2) (AID 1645885); further: nearly all actives have a fitted effect of over 25% in size
Details: EPAC2 Rap1B-BODIPY-GDP exchange fluorescence, biochemical; series mostly up to 114 µM
Records with an inconclusive call do not appear. The source made the active and inactive calls. The call rests on the fitted dose curve; in most records, active means well fitted inhibition curve with a large enough effect; inconclusive means small, poorly fitted or top-dose-only effect; inactive means no such curve, though single readings can be large or run the other way.
# output must be one of 1.0 (active), 0.0 (inactive)

COc1ccc(-c2nc3cnc(Nc4ccccc4)nc3n(CCC#N)c2=O)cc1: 0.0

-- ask Write down the call the test reported for this compound. Item: COc1ccc2c(c1)[C@@]1(C)CCC[C@](C)(CO)C1CC2 (stereo not given in full)
-- reply 1.0

-- ask Write down the call the test reported for this compound. Item: COc1cc(C/C=C/c2ccccc2)c(OC)cc1O
-- reply 0.0

-- ask Write down the call the test reported for this compound. Item: COc1cccc(Cn2c(=O)c(-c3cccs3)nc3cnc(Nc4cccc(OC)c4)nc32)c1
-- reply 0.0

-- ask Write down the call the test reported for this compound. Item: Cc1c(CC(C)(C)C(=O)O)n(Cc2ccc(Cl)cc2)c2ccc(F)cc12
-- reply 1.0

====

Molecular target: Cytochrome P450 1A2 (Homo sapiens) (UniProt P05177)
Sequence (P05177 whole entry, looked up): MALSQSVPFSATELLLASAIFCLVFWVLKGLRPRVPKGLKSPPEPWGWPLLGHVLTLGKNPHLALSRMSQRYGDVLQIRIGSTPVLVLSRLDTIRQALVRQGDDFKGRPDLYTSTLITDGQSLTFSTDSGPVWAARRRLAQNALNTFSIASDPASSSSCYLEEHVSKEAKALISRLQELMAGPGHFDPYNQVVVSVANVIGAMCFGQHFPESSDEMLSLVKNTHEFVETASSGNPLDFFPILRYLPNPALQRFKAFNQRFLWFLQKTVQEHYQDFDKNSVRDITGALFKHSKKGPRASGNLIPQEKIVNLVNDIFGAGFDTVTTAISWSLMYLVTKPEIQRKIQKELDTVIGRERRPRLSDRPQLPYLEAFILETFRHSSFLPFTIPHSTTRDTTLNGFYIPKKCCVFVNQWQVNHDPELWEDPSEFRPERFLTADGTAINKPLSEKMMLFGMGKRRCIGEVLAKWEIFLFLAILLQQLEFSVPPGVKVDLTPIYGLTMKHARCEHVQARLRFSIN
Experiment: p450-cyp1a2 (AID 410)
Conditions: recombinant CYP1A2, luciferin-ME demethylation, luminescence; series mostly up to 57 µM
Protocol: The P450 gene superfamily is involved in metabolism and the clearance of xenobiotics. This assay used human CYP1A2 to measure the demethylation of luciferin 6' methyl ether (Luciferin-ME; Promega-Glo) to luciferin. The luciferin is then measured by luminescence after the addition of a luciferase detection regeant. Luciferin-ME concentration in the assay was equal to its Km for CYP1A2. NCGC Assay Protocol Summary: […]
Results filed as inconclusive are left out. The source made the active and inactive calls. Calls come from the whole dose curve.
# output must be one of active, inactive

-- ask Write down the call the test reported for this molecule. Item: COc1ccc(-c2nc3cnc(N4CCN(C)CC4)nc3n(C)c2=O)cc1
-- reply active

-- ask Write down the call the test reported for this molecule. Item: Cn1cccc1C(=O)N1CCC2(CCCN(Cc3ccncc3)C2)CC1
-- reply active

-- ask Write down the call the test reported for this molecule. Item: COC(=O)N1CCC[C@@]2(CCN(C(=O)Nc3ccc(OC)cc3)C2)C1
-- reply inactive

-- ask Write down the call the test reported for this molecule. Item: CN(Cc1ccco1)c1ncnc2ccc(-c3ccc4c(c3)OCO4)cc12
-- reply active

-- ask Write down the call the test reported for this molecule. Item: COc1ccccc1CN1CC[C@@]2(CCCN(S(=O)(=O)c3ccccc3)C2)C1
-- reply active

-- ask Write down the call the test reported for this molecule. Item: N#Cc1ccc(CN2CC3(CCN(C(=O)c4cccc(F)c4)CC3)C2)cc1
-- reply active

-- ask Write down the call the test reported for this molecule. Item: COc1ccc(-n2c(=O)c(CCc3ccccc3)nc3cncnc32)cc1
-- reply active
